protocolText: chemical genetic growth profiling, strain panel (AID 1159580);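 also: tested at 20 µM; growth read once vehicle control cultures reached saturation at 30 °C; 1 = growth at the plate median or of vehicle wells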
appliedConditions: S. cerevisiae deletion strains, growth OD, locus YJR066W, strain TOR1, stronger effect = lower value
The whole screen tested about 5,500 compounds, of which about 2,000 (36%) were called active. About 18% were inconclusive and are not listed. Some of the results follow.
For each record, write down the corresponding normalized growth.
// print number alone

Q. Any idea what normalized growth was measured for "NC(N)=Nc1nc(-c2cc(Cl)sc2Cl)cs1" ?
A. 0.997

Q. Which measured normalized growth value corresponds to "CCOC(=O)c1ncn2c1CN(C)C(=O)c1cc(F)ccc1-2" ?
A. 0.93

Q. // query normalized growth value for entry "COc1ccc(C(C)=O)c(O)c1"
A. 0.905

Q. Record request: normalized growth value, item "O=C(Nc1c(Br)c(C2CC2)nn1-c1ccccc1)C(Cl)(Cl)Cl"
A. 0.86

Q. Return reported normalized growth; argument: "CC(C)(C)C1=NN(c2nc3ccc(Cl)cc3s2)C(=O)C1"
A. 0.108

Q. Find the recorded normalized growth belonging to "C/C(=N/NC(N)=S)c1ccccn1" and report it.
A. 0.881

Q. Would you mind telling me what normalized growth value was observed for CC(C)CC1C(=O)N2CCC[C@H]2C2(O)O[C@](NC(=O)C3C=C4c5cccc6[nH]c(Br)c(c56)C[C@H]4N(C)C3)(C(C)C)C(=O)N12 (some centres not stated) ?
A. 0.993

Q. Look at this compound and give its reported normalized growth. "CC(C)[N+](C)(CCOC(=O)C1c2ccccc2Oc2ccccc21)C(C)C"
A. 0.985

Q. // lookup normalized growth for "O=C(Oc1cc(Cl)c(Cl)cc1Cl)C1c2ccccc2Oc2ccccc21"
A. 0.93

Q. Any idea what its normalized growth is? The compound is "CCCCCCCCCCCCC[N+](C)(C)Cc1ccccc1"
A. -0.000757

Q. For "O=C1CCO1" , what is its reported normalized growth?
A. 0.946

Q. # lookup: normalized growth of "COc1ccc(C(=O)c2ccccc2)c(O)c1"
A. 0.835

====

Assignment: determine reported normalized growth for the given molecules.
protocolText: chemical genetic growth profiling, strain panel (AID 1159580);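 also: tested at 20 µM; growth read once vehicle control cultures reached saturation at 30 °C; 1 = growth at the plate median or of vehicle wells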
appliedConditions: S. cerevisiae deletion strains, growth OD, locus YLR102C, strain apc9, stronger effect = lower value
Out of some 5,500 compounds screened, about 2,000 (36%) were called active. Inconclusive results (about 18%) are left out. Some of the results follow.
Form rule: numeric answer, no unit written next to it.

Q. What value of normalized growth has been recorded for this entry: "NC(=O)c1ncn([C@@H]2O[C@H](CO)[C@@H](O)[C@H]2O)c1O"
A. 1.02

Q. Give its normalized growth value. Item: "Cc1cc(=O)c2c(O)cc(O)c(C)c2o1"
A. 0.982

Q. Would you kindly share the measured normalized growth for "O=C(O)c1cc(=O)c2ccc(Cl)cc2[nH]1" ?
A. 0.986

Q. What normalized growth value was documented for this molecule, "COc1ccc2c(c1)[C@@]1(C)CCC(=O)C[C@H]1CC2" ?
A. 0.985

Q. I would be grateful if you could share the reported normalized growth for "COc1ccc(C(=O)c2ccccc2O)c(O)c1" .
A. 0.948

Q. Could you share which normalized growth value was measured for "O=[N+]([O-])O[C@H]1CO[C@H]2[C@@H]1OC[C@H]2O[N+](=O)[O-]" ?
A. 1.01

Q. Requested read-out: normalized growth. Entry: CCc1cccc(C)c1N(C(=O)CCl)C(C)COC (stereo not drawn)
A. 1.02

Q. Given "COc1ccc2c(c1)OC[C@@H](Cc1ccc(OC)c(OC)c1)[C@H]2O" , state its recorded normalized growth.
A. 0.981

Q. Query: normalized growth; subject: "N=c1nc(N2CCCCC2)cc(N)n1O"
A. 0.981

Q. # query: normalized growth of entry "COc1ccc(-c2coc3c(OC)c(OC)ccc3c2=O)cc1"
A. 1.01

Q. I'd like to know its normalized growth. The molecule in question is CCC1(c2ccc(N)cc2)CCC(=O)NC1=O (stereo not drawn)
A. 0.992

Q. Returns the measured normalized growth for the input molecule. Input: "COC(=O)COc1ccc(Cl)cc1Cl"
A. 1.01

Q. Quick check: normalized growth of "COc1c(CC=C(C)C)c2c(c3oc(=O)c(-c4ccc(O)cc4)c(O)c13)C=CC(C)(C)O2" ?
A. 0.978

Q. Which normalized growth value is on record for "COC(=O)c1c(Cl)c(Cl)c(C(=O)OC)c(Cl)c1Cl" ?
A. 1.01

Q. Using the record for "COc1cc(O)c(C(=O)c2ccccc2)cc1O" , report its normalized growth.
A. 0.97

Q. I would be grateful if you could share the reported normalized growth for "COc1ccc(C(=O)c2ccccc2)c(O)c1" .
A. 0.906

Q. Which normalized growth is reported for this molecule? COC(=O)[C@@H]1C(O)CC[C@H]2CN3CCc4c([nH]c5ccccc45)[C@@H]3C[C@@H]21 (stereo partly drawn)
A. 0.995

Q. Please look up its normalized growth: "COC(=O)COc1cc(Cl)c(Cl)cc1Cl"
A. 0.957

Q. normalized growth for "CC[C@@H](CO)NCCN[C@@H](CC)CO" ?
A. 1

Q. Query (molecule): "Cc1cc(C(C)(C)CC(C)(C)C)ccc1OCCOCC[N+](C)(C)Cc1ccccc1" ; field requested: normalized growth
A. 0.0571

Q. Item "COc1ccc(-c2coc3c(O)c(OC)ccc3c2=O)cc1" has what recorded normalized growth?
A. 0.941

Q. normalized growth lookup needed for CC(=O)[C@H]1CCC2C3C[C@H](C)C4=CC(=O)CC[C@]4(C)C3[C@@H](O)C[C@@]21C (stereo partly drawn) , thanks.
A. 0.975

Q. Can you look up the measured normalized growth of CC1(O)/C=C/C=C(\CO)C2CC(C)(C)C2(O)CC1 (stereo not drawn) for me?
A. 1

Q. Report normalized growth for "NC/C=C/C(=O)O" please.
A. 1.01

Q. normalized growth lookup needed for NC[C@@H]1O[C@H](O[C@@H]2[C@@H](CO)OC(O[C@@H]3[C@@H](O)[C@H](N)C[C@H](N)[C@H]3OC3O[C@H](CN)[C@@H](O)[C@H](O)[C@H]3N)[C@@H]2O)[C@H](N)[C@@H](O)[C@@H]1O (stereo partly drawn) , thanks.
A. 1.02

Q. Which normalized growth is listed for "Cc1ccc(O)cc1" ?
A. 0.993

Q. Which normalized growth reading was recorded for the molecule CC1(C)S[C@@H]2[C@H](NC(=O)[C@H](NC(=O)N3CCNC3=O)c3ccccc3)C(=O)N2C1C(=O)O (stereo partly drawn) ?
A. 0.992

Q. Look at this molecule and give its reported normalized growth. CC(=O)O[C@]1(C(C)=O)CCC2C3C[C@H](C)C4=CC(=O)CC[C@]4(C)C3CC[C@@]21C (stereo partly drawn)
A. 0.989

Q. What measured normalized growth goes with "CC(C)=CCc1c(O)cc(C)oc1=O" ?
A. 0.953

Q. # input molecule: "O=C(/C=C/C=C/c1ccc2c(c1)OCO2)N1CCCCC1" ; wanted: its normalized growth
A. 0.94

Q. Please give the measured normalized growth for this molecule: "O=c1ccc2ccccc2o1"
A. 0.987

Q. I'd like to know its normalized growth. The molecule in question is CN1Cc2c(ccc3c2OCO3)C2C(O)Cc3cc4c(cc3C21)OCO4 (stereo not drawn)
A. 1.01

Q. Returns the measured normalized growth for the input molecule. Input: "Cc1cc(=O)c2c(O)c(C)c(O)cc2o1"
A. 0.976

Q. normalized growth for "COc1ccc(-c2c(O)c3cc4c(c(CC=C(C)C)c3oc2=O)OC(C)(C)CC4)cc1" ?
A. 1.01

Q. Fill blank: measured normalized growth of the molecule "c1ccc(CC2=NCCN2)cc1" is ____.
A. 0.897

Q. What value of normalized growth has been recorded for this entry: "COc1c(O)cc2oc3cc(O)c(CC=C(C)C)c(O)c3c(=O)c2c1CC=C(C)C"
A. 0.93

Q. GET /values?readout=normalized growth&item= "CCc1nc(N)nc(N)c1-c1ccc(Cl)cc1"
A. 1

Q. # query: normalized growth of entry COc1ccc(CC2c3cc(OC)c(OC)cc3CCN2C)cc1OC (stereo not drawn)
A. 0.978

Q. So what's the measured normalized growth for this one? CC1(C)C2CC[C@]3(C)C(C(=O)C=C4[C@@H]5C[C@@](C)(C(=O)O)CC[C@]5(C)CC[C@]43C)[C@@]2(C)CC[C@@H]1O (stereo partly drawn)
A. 1.03

Q. Reported normalized growth, molecule "CCCCCCCCCCCCC[N+](C)(C)Cc1ccccc1" : ____
A. 0.0591

Q. // normalized growth lookup, key: "C=C(C)/C=C1/C=CC(=O)C(C)=C1"
A. 0.0756

Q. Query (molecule): CCC1(C)CC(=O)NC1=O (stereo not drawn) ; field requested: normalized growth
A. 1.01

Q. Data request, read-out normalized growth, for "Cc1c(O)cc(O)c2c(=O)c(-c3ccc(O)cc3)coc12"
A. 1.01

Q. // query normalized growth value for entry "CC(C)N(C(=O)CCl)c1ccccc1"
A. 1

Q. Query: normalized growth; subject: "NC(N)=NOCC[C@H](N)C(=O)O"
A. 0.988

Q. # normalized growth lookup, item "O=C(O)COc1cc(Cl)c(Cl)cc1Cl"
A. 1.02

Q. Can you share its normalized growth? I mean this molecule: COc1cccc2c1CCC1CC(=O)CCC21C (stereo not drawn)
A. 0.961

Q. What value of normalized growth has been recorded for this entry: "Oc1ccc(O)cc1"
A. 1.03
